# Tested on: Yap1 mRNA
# test_details: Dose-dependent inhibition of human Yap1 in A-431 cells (Example 7, 10,000 cells per well, RTS36584)
# Type: cell-based
# details: Table 58, 15.6 nM, free uptake, A-431 cells 10,000 cells per well, 48 hours
Strand notation (5' to 3'): a small letter for the sugar, then the base; units joined by * are phosphorothioate-linked, units joined directly phosphodiester-linked; [ ] holds rarer units or linkages, { } end groups; capitals alone tell only the bases. k = constrained ethyl (cEt); [5mC] = 5-methylcytosine; d = 2'-deoxy (DNA)
property_measured: Yap1 mRNA, % UTC
In your response, put the unit directly after the numeric value.

958547 (k[5mC]*kA*k[5mC]*dA*dT*dA*d[5mC]*dT*d[5mC]*dT*dA*dG*dT*kT*kA*k[5mC]; antisense) [compound 958547]: 98 % UTC
958752 (kG*kA*kA*dT*dT*dT*dT*dT*dA*dG*dT*d[5mC]*d[5mC]*kA*kG*kT; antisense) [compound 958752]: 102 % UTC
958727 (kA*kT*k[5mC]*dT*dG*dT*d[5mC]*dA*dG*dT*dT*dA*dT*k[5mC]*k[5mC]*kT; antisense) [compound 958727]: 90 % UTC

We next turn to a different substance, shown below.
stdin: Name the recorded Yap1 mRNA, % UTC of the substance listed here: 958542 (kT*kA*kT*dA*dG*dT*dA*dT*dT*d[5mC]*dT*dA*dT*k[5mC]*k[5mC]*kA; antisense) [compound 958542]
stdout: 90 % UTC
